Compiled record: log10 of IC50 values for human ACC2 (Homo sapiens (Human)) across several sources.
Units before log transform: nM; reported quantity: IC50; transform: log10.

Sample records with log10 of IC50:
CCOc1ncc(C#Cc2ccc(CC(C)NC(C)=O)cc2)cn1 (centres unmarked)    2.58
CC(Cc1ccc(C2CN(c3ccc(OCC4CC4)cc3)C2)cc1)NC(=O)Cc1cc[nH]c1 (centres unmarked)    3.47
CC(=O)N[C@@H](C)c1ccc(OC2CCN(c3ccc(C4CCC4)cc3)C2)cc1 (some centres unmarked)    2.10

## Input For the compound shown here, CC(=O)NC(C)Cc1ccc(C#Cc2cccc(OCc3cn(C)cn3)c2)cc1 (centres unmarked) , give the reported log10 of IC50.
## Output 3.20

## Input Also need CCOc1ccc(C#Cc2ccc(CC(C)NC(=O)C3(C)CC3)cc2)cc1 (centres unmarked) , thanks.
## Output 2.15
